B1: LINE1-full (parent)
chain: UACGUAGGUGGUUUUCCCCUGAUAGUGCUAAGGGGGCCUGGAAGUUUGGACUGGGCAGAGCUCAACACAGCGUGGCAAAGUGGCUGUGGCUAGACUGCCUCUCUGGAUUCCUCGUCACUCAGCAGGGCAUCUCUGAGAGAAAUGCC

- Variants of: B1
- procedure-details: self-cleavage, relative activity (ratio to wild type); higher = more cleavage; in vitro, sequencing; the parent is a self-cleaving ribozyme
Everything with self-cleavage lower than 1 is false (0); everything else, including exactly 1, is true (1).

mutation_id="G122A U130C" cat="true (1)"
mutation_id="G10A U81A" cat="true (1)"
mutation_id="U15G A79G" cat="false (0)"
mutation_id="U87C U91C" cat="false (0)"
mutation_id="U62C C111U" cat="false (0)"

Has U109A U143A a recorded self-cleavage greater than or equal to 1?
true (1)

Check U13C U132A too.
true (1)

Now the same for G60U A121C
false (0)

Same again, this time with A107G G137U
true (1)

Thanks! And A67U U130A ?
false (0)

Now the same for U12G A136U
false (0)

And the next one, G53U G70C ?
false (0)

And the next one, A22U C118U ?
true (1)

Note, next up: C68U A77G
false (0)

Then what about the variant C110U A136C ?
true (1)

Another variant to check: U73C G105A
true (1)

Would you kindly repeat that for C28A U115C ?
true (1)

Then what about the variant U14C C123U ?
true (1)

Param item: A22G G88A
false (0)
